- System: Staphylococcus aureus
- methodNotes: MIC, broth-dilution microtiter test, Staphylococcus aureus
- Assay type: cell-based
- condition: broth-dilution microtiter
property: MIC
The answer consists of two parts: a number and, after it, its unit.

Here is how some compounds turned out for MIC.
[[record]]
compound = "CCC1OC(=O)CC(O)C(C)C(OC2OC(C)C(O)C(N(C)C)C2O)C(CCOc2ncnc3ccccc23)CC(C)C(=O)C=CC(C)=CC1COC1OC(C)C(O)C(OC)C1OC (stereo not drawn)"
result = "0.78 µg/mL"

[[record]]
compound = "CCC1OC(=O)CC(O)C(C)C(OC2OC(C)C(O)C(N(C)C)C2O)C(CCOc2cccnc2)CC(C)C(=O)C=CC(C)=CC1COC1OC(C)C(O)C(OC)C1OC (stereo not drawn)"
result = "1.56 µg/mL"

[[record]]
compound = "CCOC(=O)NN(CCC1CC(C)C(=O)C=CC(C)=CC(COC2OC(C)C(O)C(OC)C2OC)C(CC)OC(=O)CC(O)C(C)C1OC1OC(C)C(O)C(N(C)C)C1O)C(=O)OCC (stereo not drawn)"
result = "1.56 µg/mL"

[[record]]
compound = "CCC(=O)OC1C(OC2C(CCN3C(=O)c4ccccc4C3=O)CC(C)C(=O)C=CC(C)=CC(COC3OC(C)C(O)C(OC)C3OC)C(CC)OC(=O)CC(O)C2C)OC(C)C(OC2CC(C)(O)C(O)C(C)O2)C1N(C)C (stereo not drawn)"
result = "3.12 µg/mL"

[[record]]
compound = "CCC1OC(=O)CC(O)C(C)C(OC2OC(C)CC(N(C)C)C2O)C(CCOc2ccccc2)CC(C)C(=O)C=CC(C)=CC1COC1OC(C)C(O)C(OC)C1OC (stereo not drawn)"
result = "0.78 µg/mL"

[[record]]
compound = "CCC1OC(=O)CC(O)C(C)C(OC2OC(C)C(O)C(N(C)C)C2O)C(CCOc2ccccc2)CC(C)C(=O)C=CC(C)=CC1COC1OC(C)C(O)C(O)C1OC (stereo not drawn)"
result = "0.39 µg/mL"

[[record]]
compound = "CCC1OC(=O)CC(O)C(C)C(OC2OC(C)C(OC(C)=O)C(N(C)C)C2OC(C)=O)C(CCOc2ccccc2)CC(C)C(=O)C=CC(C)=CC1COC1OC(C)C(O)C(OC)C1OC (stereo not drawn)"
result = "0.39 µg/mL"

[[record]]
compound = "CCC(=O)OC1C(OC2C(CCN3C(=O)c4ccccc4C3=O)CC(C)C(=O)C=CC(C)=CC(COC3OC(C)C(O)C(OC)C3OC)C(CC)OC(=O)CC(O)C2C)OC(C)C(O)C1N(C)C (stereo not drawn)"
result = "1.56 µg/mL"

[[record]]
compound = "CCC(=O)OC1C(C)OC(OC2C(CCN3C(=O)c4ccccc4C3=O)CC(C)C(=O)C=CC(C)=CC(COC3OC(C)C(O)C(OC)C3OC)C(CC)OC(=O)CC(O)C2C)C(OC(=O)CC)C1N(C)C (stereo not drawn)"
result = "0.78 µg/mL"

[[record]]
compound = "CCC1OC(=O)CC(O)C(C)C(OC2OC(C)C(O)C(N(C)C)C2O)C(CCOc2cc(Cl)cc(Cl)c2)CC(C)C(=O)C=CC(C)=CC1COC1OC(C)C(O)C(OC)C1OC (stereo not drawn)"
result = "0.39 µg/mL"


I'm hoping you can list MIC for every compound here, please.
1. CCC1OC(=O)CC(O)C(C)C(OC2OC(C)C(O)C(N(C)C)C2O)C(CCN=[N+]=[N-])CC(C)C(=O)C=CC(C)=CC1COC1OC(C)C(O)C(OC)C1OC (stereo not drawn)
2. CCC1OC(=O)CC(O)C(C)C(OC2OC(C)C(OC3CC(C)(O)C(O)C(C)O3)C(N(C)C)C2OC(C)=O)C(CCOc2ccccc2)CC(C)C(=O)C=CC(C)=CC1COC1OC(C)C(O)C(OC)C1OC (stereo not drawn)
3. CCC1OC(=O)CC(O)C(C)C(OC2OC(C)C(O)C(N(C)C)C2O)C(CCOc2ccc(Oc3ccccc3)cc2)CC(C)C(=O)C=CC(C)=CC1COC1OC(C)C(O)C(OC)C1OC (stereo not drawn)
4. CCC1OC(=O)CC(O)C(C)C(OC2OC(C)C(O)C(N(C)C)C2O)C(CCS(=O)(=O)c2ccc(C)cc2)CC(C)C(=O)C=CC(C)=CC1COC1OC(C)C(O)C(OC)C1OC (stereo not drawn)

A)
0.39 µg/mL
3.12 µg/mL
0.78 µg/mL
0.39 µg/mL

Entry CCC1OC(=O)CC(O)C(C)C(OC2OC(C)C(O)C(N(C)C)C2O)C(CCOc2nnc(-c3ccccc3)c(-c3ccccc3)n2)CC(C)C(=O)C=CC(C)=CC1COC1OC(C)C(O)C(OC)C1OC (stereo not drawn) under Staphylococcus aureus had MIC of 1.56 µg/mL
